test system: human muscarinic receptors M3 (Homo sapiens, UniProt P20309)
Construct: expressed in transfected cells; host or cells: CHO-K1 (chinese hamster ovary-K1), stably transfected; membrane preparations
Sequence (P20309 whole entry): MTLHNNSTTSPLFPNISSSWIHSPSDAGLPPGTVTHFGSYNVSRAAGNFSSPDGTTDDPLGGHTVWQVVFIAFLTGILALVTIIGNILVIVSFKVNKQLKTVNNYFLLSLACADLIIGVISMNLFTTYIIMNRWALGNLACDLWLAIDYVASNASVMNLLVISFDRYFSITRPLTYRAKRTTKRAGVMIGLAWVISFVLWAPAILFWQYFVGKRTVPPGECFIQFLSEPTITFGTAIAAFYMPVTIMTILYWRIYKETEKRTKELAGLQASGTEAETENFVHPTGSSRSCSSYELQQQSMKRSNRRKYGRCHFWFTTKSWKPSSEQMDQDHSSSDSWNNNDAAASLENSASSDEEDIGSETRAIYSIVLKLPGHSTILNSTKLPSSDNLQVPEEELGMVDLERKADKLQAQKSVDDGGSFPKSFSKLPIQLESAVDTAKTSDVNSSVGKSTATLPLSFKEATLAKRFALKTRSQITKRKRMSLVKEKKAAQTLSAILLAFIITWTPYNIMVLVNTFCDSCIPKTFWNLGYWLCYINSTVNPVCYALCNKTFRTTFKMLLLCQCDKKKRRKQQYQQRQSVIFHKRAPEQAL
test protocol: biochemical
Assay type: binding
condition info: read-out: % INHIBITION concentration: 1.00E−08 M
Where a name gives a salt, the structure may show the parent alone.
quantity measured: inhibition at 0.01 µM (%)
Give the value in % but do not write % after it.

As a guide, the following entries are already answered.
O=C(O[C@H]1C[N+]2(CCCc3ccccc3)CCC1CC2)[C@](O)(c1ccco1)C1CCCCC1 [Example 81, trifluoroacetate] | 45.4
COc1ccc(OCCC[N+]23CCC(CC2)[C@@H](OC(=O)[C@](O)(c2cccs2)C2CCCC2)C3)cc1 [Example 44, trifluoroacetate] | 44.6
O=C(O[C@H]1C[N+]2(CCCOc3ccccc3)CCC1CC2)[C@](O)(c1ccccc1)C1CCCC1 [Example 82, trifluoroacetate] | 55.3
CN(CCC[N+]12CCC(CC1)[C@@H](OC(=O)[C@](O)(c1cccs1)C1CCCC1)C2)c1ccccc1 [Example 36, trifluoroacetate] | 42
O=C(O[C@H]1C[N+]2(CCc3ccccc3)CCC1CC2)[C@@](O)(c1ccccc1)C1CCCC1 [Example 86, trifluoroacetate] | 37.2

Kindly consider the entry below.
[Q] # input compound: `O=C(O[C@H]1C[N+]2(CCOc3ccccc3)CCC1CC2)[C@](O)(c1cccs1)C1CCCC1` ; wanted: its inhibition at 0.01 µM
[A] 56.6
